Values compiled from PubChem BioAssay (NCI).

system: NCI-H23 lung; assay: NCI-60 one-dose screen, 48 h; conditions: 10 µM unless noted
About 83,000 compounds went through this panel and 20% of them were active in at least one assay; those are over-represented in the sample as a whole. Activity calls are given as the source filed them. How the source made its calls: active means growth percent below 10; inactive means the rest.
Possible outcomes: active, inactive

molecule	target	classification
CC(=O)Nc1ccc(C(=O)CCl)cc1	NCI-H23 lung	inactive
NC(=S)N/N=C/c1ncccc1O	NCI-H23 lung	active
CCNc1nnnn1CC	NCI-H23 lung	inactive
CCOC(=O)c1cc(CC)sc1NC(=O)CC(C)=O	NCI-H23 lung	inactive
CCN(CC)CC(O)c1cc(-c2ccc(Cl)cc2)nc2cc(Cl)ccc12 (configuration not stated)	NCI-H23 lung	inactive
COC1=CC(=O)c2c(O)c3c(c(O)c2C1=O)CC(C)(O)OC3 (configuration not stated)	NCI-H23 lung	active
O=[N+]([O-])C=C(c1ccccc1)c1ccccc1	NCI-H23 lung	inactive

----------
tested on: OVCAR-8 ovarian; test: NCI-60 one-dose screen, 48 h (100 = growth as untreated, 0 = no growth, -100 = all killed); details: 10 µM unless noted
This is part of a sample that, as a whole, favours compounds with a hit. Of some 83,000 tested, about 20% had one in any assay.
Labelling field: enter 1.0 if recorded growth is less than 60%. Enter 0.0 if it equals or exceeds that cut-off.

compound	target	classification
CC(C)N=C(N)/N=C(\N)Nc1ccc2ccc3ccccc3c2c1	OVCAR-8 ovarian	1.0
CC(=O)c1ccc2c(c1)CCc1ccccc1-2	OVCAR-8 ovarian	0.0
Oc1ccc2ccccc2c1N=Nc1nccs1	OVCAR-8 ovarian	1.0
CCCCCC/C=C1\CCC(CN2CCCC2)C1=O (stereo not given)	OVCAR-8 ovarian	0.0
Cc1nnc(N/N=C/c2ccc([N+](=O)[O-])o2)[nH]c1=O	OVCAR-8 ovarian	1.0
COc1ccc(/C=C2/C(=O)ON=C2C)cc1	OVCAR-8 ovarian	0.0
COC(=O)c1cc([N+](=O)[O-])cc([N+](=O)[O-])c1Cl	OVCAR-8 ovarian	0.0
COc1cc(-c2ccc(-[n+]3nc(-c4ccc([N+](=O)[O-])cc4)nn3-c3ccc([N+](=O)[O-])cc3)c(OC)c2)ccc1-[n+]1nc(-c2ccc([N+](=O)[O-])cc2)nn1-c1ccc([N+](=O)[O-])cc1	OVCAR-8 ovarian	1.0
O=C1C=CC(=O)N1C1CCCCCCCCCCC1	OVCAR-8 ovarian	0.0
Nc1ccc(-c2ccc(N)c(S(=O)(=O)O)c2)cc1S(=O)(=O)O	OVCAR-8 ovarian	0.0
CC(=O)Nc1ccc(C(=O)CCl)cc1	OVCAR-8 ovarian	0.0
CCCCCCCCCCCCCCCc1ccc(C(=O)C[n+]2ccccc2)cc1	OVCAR-8 ovarian	1.0
COc1cc(/C=C/c2ccnc3ccccc23)cc(OC)c1OC	OVCAR-8 ovarian	1.0
CCN(CC)CC(O)c1cc(-c2ccc(Cl)cc2)nc2cc(Cl)ccc12 (stereo not given)	OVCAR-8 ovarian	1.0
OC(c1cc(-c2ccc(Cl)cc2)nc2c(Cl)cccc12)C1CCCCN1 (stereo not given)	OVCAR-8 ovarian	1.0
CCSc1nc2ccccc2o1	OVCAR-8 ovarian	0.0
CCCCCCCCCCCCCCCCCC[S+](C)CC (stereo not given)	OVCAR-8 ovarian	1.0
COC(=O)Nc1nc2ccc(C3(c4ccc(F)cc4)OCCO3)cc2[nH]1	OVCAR-8 ovarian	1.0
CCCCCCCCCCCCNCCCc1ccccc1	OVCAR-8 ovarian	0.0
O=[N+]([O-])c1ccc(C(Br)c2ccc([N+](=O)[O-])cc2)cc1	OVCAR-8 ovarian	0.0
Oc1cc(Cl)ccc1Cc1ccc(Cl)cc1O	OVCAR-8 ovarian	0.0
CC(C)c1ccc(C(=O)OC2CCCC2)cc1	OVCAR-8 ovarian	0.0
Cc1oc2c(C)c3oc(=O)cc(C)c3cc2c1CCl	OVCAR-8 ovarian	0.0
CCOC(=O)/C(=C\c1ccc2ccccc2c1)P(=O)(OCC)OCC	OVCAR-8 ovarian	1.0
O=C(Nc1cccc(C(F)(F)F)c1)Oc1ccc(Cl)c2cccnc12	OVCAR-8 ovarian	1.0
CC(CSc1n[nH]c(=S)s1)c1ccccc1 (stereo not given)	OVCAR-8 ovarian	0.0
CCCCC(CCc1ccc([N+](=O)[O-])cc1)(C(C)=O)C(=O)OCC (stereo not given)	OVCAR-8 ovarian	0.0
CCCCCCCCCCCC[n+]1ccccc1 (tested in a mixture with another compound)	OVCAR-8 ovarian	1.0
Nc1cccc2cccc([N+](=O)[O-])c12	OVCAR-8 ovarian	0.0
CCOc1ccc(C(C[N+](=O)[O-])Sc2ccccc2N)cc1 (stereo not given)	OVCAR-8 ovarian	1.0
CC(C)(C)c1ccc(O)c(Br)c1	OVCAR-8 ovarian	0.0
CC/C(=C(/CC)c1ccc(O)cc1)c1ccc(O)cc1	OVCAR-8 ovarian	0.0
Cc1onc(-c2ccccc2)c1C(=O)N/N=C/c1cc(Cl)cc(Cl)c1O	OVCAR-8 ovarian	1.0
N=C1C=C(N)C(=O)c2ccccc21	OVCAR-8 ovarian	1.0
O=C1C=CC(O)=CC1=P(c1ccccc1)(c1ccccc1)c1ccccc1	OVCAR-8 ovarian	0.0
O=C1C=CC(=O)N1c1ccc(O)cc1	OVCAR-8 ovarian	0.0
C=C(C(N)=O)C(N)C(=O)O (stereo not given)	OVCAR-8 ovarian	0.0
NNc1cccc([N+](=O)[O-])c1	OVCAR-8 ovarian	0.0
Cc1cc(Br)c2nsnc2c1[N+](=O)[O-]	OVCAR-8 ovarian	1.0
C[n+]1ccccc1C[n+]1ccccc1	OVCAR-8 ovarian	0.0
COc1cc([C@@H]2c3cc4c(cc3[C@H](OC3OC5COC(c6ccccc6)OC5C(O)C3O)[C@H]3COC(=O)[C@H]23)OCO4)cc(OC)c1OC (stereo not given in full)	OVCAR-8 ovarian	1.0
CCCCCCCCCCCC(=O)OC(C)C(=O)NCCCC (stereo not given)	OVCAR-8 ovarian	0.0
CN(Cc1ccccc1)c1ccc(SC#N)cc1	OVCAR-8 ovarian	0.0
O=C(c1ccccc1)C(Br)[N+](=O)[O-] (stereo not given)	OVCAR-8 ovarian	0.0
Oc1ccc2ccccc2c1N=Nc1ccccn1	OVCAR-8 ovarian	1.0
O=S(=O)(O)c1cnccn1	OVCAR-8 ovarian	0.0
Fc1ccc(NCCS)cc1	OVCAR-8 ovarian	0.0
O=C(CCl)N(c1ccccc1)c1ccccc1	OVCAR-8 ovarian	0.0
N#Cc1c2ccccc2nc2ccccc12	OVCAR-8 ovarian	0.0

----------
Tested on: T-47D breast
Assay: NCI-60 one-dose screen, 48 h (100 = growth as untreated, 0 = no growth, -100 = all killed)
Conditions: 10 µM unless noted
Method: Growth inhibition of the T-47D human tumor cell line is measured as a screen for anti-cancer activity. Cells are grown in 96 well plates and exposed to the test compound for 48 hours. Compounds are tested at a single concentration, which is 10^-5 M for most compounds. The reported endpoint is percent growth (GI% or GIPRCNT), where numbers from 0 - 100% represent growth inhibition, and numbers from -100% - 0 represent cell death. For example, a value of 40 represents 60% growth inhibition. […]
The panel holds about 83,000 compounds, 20% with a hit somewhere; the sample as a whole holds those more often.
Labelling field: enter MET if recorded growth is less than 90%. Enter NOT MET if it equals or exceeds that cut-off.

molecule	target	classification
CCN(CC)c1ccc(/C=C\C(=O)c2ccc(NC(C)=O)cc2)cc1	T-47D breast	MET
Oc1ccc(Cl)cc1C(c1cc(Cl)ccc1O)C(Cl)(Cl)Cl	T-47D breast	MET
Cc1cc2cccnc2c2ncccc12	T-47D breast	MET
O=C1C=CC(=O)N1c1ccccc1	T-47D breast	NOT MET
Cc1cc(C(N)=O)cc(C)c1C(=O)OCCCl	T-47D breast	NOT MET
CN(C)c1ccc(/C=C/c2nccc3ccccc23)cc1	T-47D breast	MET
O=S(=O)(O)c1cnccn1	T-47D breast	MET
OC(c1cc(C23CC4CC(CC(C4)C2)C3)nc2c(Cl)cc(Cl)cc12)C1CCCCN1 (configuration not stated)	T-47D breast	MET
CCCCCC/C=C1\CCC(CN2CCCC2)C1=O (configuration not stated)	T-47D breast	MET
CN1CCC(c2ccccc2)(c2ccccc2)C(=O)C1	T-47D breast	MET

----------
growth: recorded values
tested on: UO-31 renal; test: NCI-60 one-dose screen, 48 h (100 = growth as untreated, 0 = no growth, -100 = all killed); conditions: 10 µM unless noted
About 83,000 compounds went through this panel and 20% of them were active in at least one assay; those are over-represented in the sample as a whole.
result-type: growth (%)

compound	result-type	measured-value
CCNc1nnnn1CC	growth	108
Cc1ccc2c(c1)sc(-c1ccc(N(C)C)cc1)[n+]2C	growth	65.1
COc1ccc(C(Cn2ccnc2)Sc2ccc(Cl)c(Cl)c2)cc1 (stereo unspecified)	growth	45.2
O=[N+]([O-])c1ccc(C2N(Cc3ccc(Cl)cc3)CCN2Cc2ccc(Cl)cc2)cc1	growth	48.5
COc1ccc(/C=C2/C(=O)ON=C2C)cc1	growth	99
O=C1C=CC(=O)N1C1CCCCCCCCCCC1	growth	60.4
